tested on: 126254-015-R-J1-PDC complex spheroid growth, % test/control; experiment: Anticancer human tumor 126254-015-R-J1-PDC patient-derived soft tissue sarcoma cell line growth inhibition [Asc]; details: second compound 0.0316 µM; first compound 0.1 µM; stronger effect = lower value;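 also: spheroids exposed to compound for seven days; 100% = DMSO vehicle control wells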
Collected viability, T/C values appear next to each entry.
Property: viability, T/C (%)

[[record]]
compound = "C=CC(=O)N1CCN(c2nc(=O)n(-c3c(C)ccnc3C(C)C)c3nc(-c4c(O)cccc4F)c(F)cc23)C(C)C1 (stereo not given) + CNC(C)C(=O)NC1CN(S(=O)(=O)c2cccc(S(=O)(=O)N3CCC4CCC(C(=O)NC(c5ccccc5)c5ccccc5)N4C(=O)C(NC(=O)C(C)NC)C3)c2)CCC2CCC(C(=O)NC(c3ccccc3)c3ccccc3)N2C1=O"
tested_system = "126254-015-R-J1-PDC complex spheroid growth, % test/control"
assay_result = 84.8

[[record]]
compound = "O=C(c1cc(Cc2n[nH]c(=O)c3ccccc23)ccc1F)N1CCN(C(=O)C2CC2)CC1 + CNC(C)C(=O)NC1CN(S(=O)(=O)c2cccc(S(=O)(=O)N3CCC4CCC(C(=O)NC(c5ccccc5)c5ccccc5)N4C(=O)C(NC(=O)C(C)NC)C3)c2)CCC2CCC(C(=O)NC(c3ccccc3)c3ccccc3)N2C1=O"
tested_system = "126254-015-R-J1-PDC complex spheroid growth, % test/control"
assay_result = 82.4

[[record]]
compound = "COc1c(OCCCN2CCOCC2)ccc2c3n(c(=NC(=O)c4cnc(N)nc4)nc12)CCN3 + CNC(C)C(=O)NC1CN(S(=O)(=O)c2cccc(S(=O)(=O)N3CCC4CCC(C(=O)NC(c5ccccc5)c5ccccc5)N4C(=O)C(NC(=O)C(C)NC)C3)c2)CCC2CCC(C(=O)NC(c3ccccc3)c3ccccc3)N2C1=O"
tested_system = "126254-015-R-J1-PDC complex spheroid growth, % test/control"
assay_result = 36.6

[[record]]
compound = "C=C(F)C(=O)N1CCN(c2nc(OCC3CCCN3C)nc3c2CCN(c2cccc4cccc(Cl)c24)C3)CC1CC#N (stereo not given) + CNC(C)C(=O)NC1CN(S(=O)(=O)c2cccc(S(=O)(=O)N3CCC4CCC(C(=O)NC(c5ccccc5)c5ccccc5)N4C(=O)C(NC(=O)C(C)NC)C3)c2)CCC2CCC(C(=O)NC(c3ccccc3)c3ccccc3)N2C1=O"
tested_system = "126254-015-R-J1-PDC complex spheroid growth, % test/control"
assay_result = 71

[[record]]
compound = "NC1CCC(NC2CC2c2ccccc2)CC1 (stereo not given) + CNC(C)C(=O)NC1CN(S(=O)(=O)c2cccc(S(=O)(=O)N3CCC4CCC(C(=O)NC(c5ccccc5)c5ccccc5)N4C(=O)C(NC(=O)C(C)NC)C3)c2)CCC2CCC(C(=O)NC(c3ccccc3)c3ccccc3)N2C1=O"
tested_system = "126254-015-R-J1-PDC complex spheroid growth, % test/control"
assay_result = 70.6

